- Target Under Test: Alpha-1D adrenergic receptor (Homo sapiens)
- Sequence (P25100 whole entry): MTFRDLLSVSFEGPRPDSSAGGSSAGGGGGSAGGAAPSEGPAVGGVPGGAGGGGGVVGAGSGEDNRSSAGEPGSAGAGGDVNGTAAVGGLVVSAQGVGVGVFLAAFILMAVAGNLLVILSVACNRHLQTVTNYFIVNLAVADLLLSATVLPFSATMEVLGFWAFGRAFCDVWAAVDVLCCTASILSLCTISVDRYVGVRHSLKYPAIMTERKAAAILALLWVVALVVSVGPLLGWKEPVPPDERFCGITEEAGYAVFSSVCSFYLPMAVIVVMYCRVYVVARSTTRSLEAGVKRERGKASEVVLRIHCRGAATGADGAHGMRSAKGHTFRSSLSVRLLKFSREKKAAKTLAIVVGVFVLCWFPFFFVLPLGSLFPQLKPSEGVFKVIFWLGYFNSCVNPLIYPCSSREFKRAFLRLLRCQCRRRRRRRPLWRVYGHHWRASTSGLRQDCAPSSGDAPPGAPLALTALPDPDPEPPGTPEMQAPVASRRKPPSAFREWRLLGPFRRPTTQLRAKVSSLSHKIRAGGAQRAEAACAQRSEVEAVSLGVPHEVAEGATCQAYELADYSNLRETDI

| Structure String | Ki / nM |
| --- | --- |
| O=C1CC2(CCCC2)CC(=O)N1CCN1CCN(c2ccc(F)cc2F)CC1 | 5.6 |
